Kindly supply the reported cell viability values for the records listed here.
Test system: MARIMO
Assay Protocol: cell viability relative to vehicle control; higher = less cytotoxic;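 note: after 48 h exposure read by CellTiter-Glo luminescence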
Applied Conditions: 10 µM; SRSF2 genotype: SRSF2 wt/wt
Structures can show the parent of a compound that is named as a salt.
Quick note: give the figure in %, leave out the unit.

Lookup result for C#C[C@]1(O)CC[C@H]2[C@@H]3CCc4cc(OC)ccc4[C@H]3CC[C@@]21C [Mestranol] ; measured cell viability: 76

Lookup result for COc1cc(OC)c(/C=C/S(=O)(=O)Cc2ccc(OC)c(NCC(=O)O)c2)c(OC)c1 ; measured cell viability: 9.46

Lookup result for CC1(C)C2CCC1(C)C(O)C2 (stereo not drawn) [Borneol] ; measured cell viability: 99.5

Lookup result for CC(=O)OCC(=O)[C@@]1(O)[C@H](C)C[C@H]2[C@@H]3CCC4=CC(=O)C=C[C@]4(C)[C@@]3(F)[C@@H](O)C[C@@]21C [Dexamethasone acetate] ; measured cell viability: 104

Lookup result for CCC1CC(=Cc2cccnc2)C(=O)C(=Cc2cccnc2)C1 (stereo not drawn) ; measured cell viability: 0.8

Lookup result for CN(CCN1CCC(OC(=O)Nc2ccccc2-c2ccccc2)CC1)C(=O)c1ccc(CN2CCC(C(N)=O)CC2)cc1 [Revefenacin] ; measured cell viability: 90.8

Lookup result for C/C=C(/C)C(=O)O[C@H]1[C@@H](OC(=O)CC(C)C)c2c(ccc3ccc(=O)oc23)OC1(C)C [Praeruptorin E] ; measured cell viability: 53.9

Lookup result for CCc1ccc(/C=C2/SC(=S)NC2=O)cc1 ; measured cell viability: 108

Lookup result for C[C@@H]1COCCN1c1cc(C2(S(C)(=O)=O)CC2)nc(-c2cccc3[nH]ccc23)n1 ; measured cell viability: 18

Lookup result for CCCCc1oc2ccccc2c1C(=O)c1cc(I)c(OCCN(CC)CC)c(I)c1 [Amiodarone HCl] ; measured cell viability: 58.6

Lookup result for CN1CCN(CCCN2c3ccccc3Sc3ccc(C(F)(F)F)cc32)CC1 [Trifluoperazine 2HCl] ; measured cell viability: 50.8

Lookup result for CC(CCC(=O)NCCS(=O)(=O)O)C1CCC2C3C(O)CC4CC(O)CCC4(C)C3CCC12C (stereo not drawn) [Sodium Tauroursodeoxycholate (TUDC)] ; measured cell viability: 103

Lookup result for COC(=O)/C=C/C(=O)OC [Dimethyl Fumarate] ; measured cell viability: 95.6

Lookup result for Cc1ccc(CNc2ncnc3ccc(-c4ccc(CO)o4)cc23)o1 ; measured cell viability: 95.8

Lookup result for NC(=O)c1cnc2[nH]ccc2c1N[C@@H]1[C@@H]2CC3C[C@H]1C[C@@](O)(C3)C2 ; measured cell viability: 71.5

Lookup result for C[C@H]1CO[C@@H]2Cn3cc(C(=O)NCc4ccc(F)cc4F)c(=O)c(O)c3C(=O)N12 ; measured cell viability: 95.4

Lookup result for Cc1cccc(-c2[nH]c(CNc3ccccc3F)nc2-c2ccc3ncnn3c2)n1 ; measured cell viability: 109

Lookup result for CC1(C)OC(=O)C=C[C@]2(C)[C@H]3CC[C@@]4(C)[C@H](c5ccoc5)OC(=O)[C@H]5O[C@]54[C@]3(C)C(=O)C[C@@H]12 [Obacunone] ; measured cell viability: 95.5

Lookup result for Cc1cc(Nc2nc(N[C@@H](C)c3ccc(F)cc3)c(C#N)cc2F)n[nH]1 ; measured cell viability: 33.4

Lookup result for CC(C(=O)Nc1cccc(/N=C/c2c(O)ccc3ccccc23)c1)c1ccccc1 (stereo not drawn) [Salermide] ; measured cell viability: 93.8

Lookup result for O=C(/C=C/n1cnc(-c2cc(C(F)(F)F)cc(C(F)(F)F)c2)n1)N1CC(F)(F)C1 ; measured cell viability: 36.6

Lookup result for CN1CC(O)c2cc(N=NC(N)=O)c(O)cc21 (stereo not drawn) [Carbazochrome] ; measured cell viability: 94.8

Lookup result for O=C(/C=C/c1ccc(O)c2c1[C@H](C(=O)O)[C@@H](c1ccc(O)c(O)c1)O2)O[C@H](Cc1ccc(O)c(O)c1)C(=O)O [Lithospermic acid] ; measured cell viability: 88.7

Lookup result for CNCCCC12CCC(c3ccccc31)c1ccccc12 [Maprotiline hydrochloride] ; measured cell viability: 71.2

Lookup result for O=C(O)CSc1nnc(Br)n1-c1ccc(C2CC2)c2ccccc12 [Lesinurad] ; measured cell viability: 108

Lookup result for CCN(CC)Cc1ccc2cc(COC(=O)Nc3ccc(C(=O)NO)cc3)ccc2c1 [ITF2357 (Givinostat)] ; measured cell viability: 9.63

Lookup result for CCCCC(=O)N(Cc1ccc(-c2ccccc2-c2nnn[nH]2)cc1)[C@H](C(=O)O)C(C)C [Valsartan (Diovan)] ; measured cell viability: 112

Lookup result for CC(C)(C)c1nc(-c2ccc(NC(=O)Nc3cccc(C(F)(F)F)c3)c3ccccc23)c2c(N)nccn12 [kira6] ; measured cell viability: 28.4

Lookup result for CC(C)(C)C(=O)Oc1ccc(S(=O)(=O)Nc2ccccc2C(=O)NCC(=O)O)cc1 [Sivelestat sodium tetrahydrate] ; measured cell viability: 102

Lookup result for COc1ccc(CNCc2cccc3ccccc23)cc1 ; measured cell viability: 97.4

Lookup result for COC(=O)N[C@H](C(=O)N[C@@H](Cc1ccccc1)[C@@H](O)CN(Cc1ccc(-c2ccccn2)cc1)NC(=O)[C@@H](NC(=O)OC)C(C)(C)C)C(C)(C)C [Atazanavir sulfate] ; measured cell viability: 118

Lookup result for COc1ccc(COc2cc3oc(=O)c4cc(C(C)O)ccc4c3cc2OC)cc1 (stereo not drawn) [Palomid 529] ; measured cell viability: 103

Lookup result for N=c1ccn2c(n1)O[C@H]1[C@H](O)[C@@H](CO)O[C@H]12 [Cyclocytidine HCl] ; measured cell viability: 29

----------
Test system: MOLM14
Assay Protocol: cell viability relative to vehicle control; higher = less cytotoxic
Applied Conditions: 10 µM; SRSF2 genotype: SRSF2 wt/wt
Assay Readout: cell viability (%)
Quick note: give the figure in %, leave out the unit.

Lookup result for CC1(C)C=Cc2c(ccc3c2OC[C@@H](c2ccc(O)cc2O)C3)O1 [Glabridin] ; measured cell viability: 94.4

Lookup result for CN(C)Cc1cccc(N=C(c2ccccc2)c2c(O)[nH]c3cc(C(=O)N(C)C)ccc23)c1 ; measured cell viability: 31.6

Lookup result for CC1=C(C(=O)OCCN(Cc2ccccc2)c2ccccc2)C(c2cccc([N+](=O)[O-])c2)C(P2(=O)OCC(C)(C)CO2)=C(C)N1 (centres undefined) [Efonidipine] ; measured cell viability: 95.7

Lookup result for Clc1ccc(C(Cn2ccnc2)OCc2c(Cl)cccc2Cl)c(Cl)c1 (centres undefined) [Isoconazole nitrate (Travogen)] ; measured cell viability: 79.6

Lookup result for OCC(O)C(O)C(O)C(O)CO (centres undefined) [Allitol] ; measured cell viability: 103

Lookup result for NC(=O)c1ccc[n+]([O-])c1 [Nicotinamide N-oxide] ; measured cell viability: 105

Lookup result for C=CCc1cc(OC)c(O)c(C(=O)NCCO)c1 [Alibendol] ; measured cell viability: 102

Lookup result for C1=Cc2ccccc2Nc2ccccc21 [Iminostilbene] ; measured cell viability: 108

Lookup result for O=c1c(-c2ccc(O)cc2)coc2cc(O)ccc12 [Daidzein] ; measured cell viability: 96.7

----------
System: MOLM14
Assay Protocol: cell viability relative to vehicle control; higher = less cytotoxic
Applied Conditions: 10 µM; SRSF2 genotype: SRSF2 P95H/wt
Counter-ions that a name gives are not always drawn.
Assay Readout: cell viability (%)
Quick note: give the figure in %, leave out the unit.

Lookup result for CCOC(=O)n1ccn(C)c1=S ; measured cell viability: 103

Lookup result for CN(C)CCOc1ccc(-c2nc(-c3ccncc3)c(-c3ccc4c(c3)CC/C4=N\O)[nH]2)cc1 ; measured cell viability: 30.2

Lookup result for O[C@@H]1CO[C@H]2[C@@H]1OC[C@@H]2O [Isosorbide] ; measured cell viability: 99.6

Lookup result for O=C(COc1cccc2c(=O)[nH]ccc12)c1ccccc1 ; measured cell viability: 102

Lookup result for CN1CCCC(n2nc(Cc3ccc(Cl)cc3)c3ccccc3c2=O)CC1 (centres undefined) [Azelastine hydrochloride (Astelin)] ; measured cell viability: 78.9

Lookup result for O=C(Nc1cnn2ccc(N3CCC[C@@H]3c3cc(F)ccc3F)nc12)N1CC[C@H](O)C1 [LOXO-101(sulfate)] ; measured cell viability: 97.6

Lookup result for C[C@@H](O)[C@H]1C(=O)N2C(C(=O)O)=C(S[C@@H]3CN[C@H](C(=O)N(C)C)C3)[C@H](C)[C@H]12 ; measured cell viability: 103

Lookup result for O=c1[nH]c(=O)n([C@H]2C[C@H](O)[C@@H](CO)O2)cc1C(F)(F)F ; measured cell viability: 52.7

Lookup result for CC(=O)SCC(Cc1ccccc1)C(=O)NCC(=O)OCc1ccccc1 (centres undefined) ; measured cell viability: 106

Lookup result for CN(N=O)C(=O)NC1C(O)OC(CO)C(O)C1O (centres undefined) [Streptozotocin (STZ)] ; measured cell viability: 97.2

Lookup result for CC1(C)S[C@@H]2[C@H](NC(=O)[C@H](C(=O)O)c3ccsc3)C(=O)N2[C@H]1C(=O)O [Ticarcillin sodium] ; measured cell viability: 96.3

Lookup result for OCCc1c[nH]c2ccccc12 ; measured cell viability: 97.8

Lookup result for O=C1CN2Cc3c(ccc(Cl)c3Cl)N=C2N1 [Anagrelide hydrochloride] ; measured cell viability: 83.4

Lookup result for CCN(CC)C(=O)C1(c2ccccc2)CC1CN (centres undefined) [Milnacipran HCl] ; measured cell viability: 102

Lookup result for CC(NCCc1ccc(O)cc1)C(O)c1ccc(O)cc1 (centres undefined) [Ritodrine hydrochloride (Yutopar)] ; measured cell viability: 98.6

Lookup result for CNC[C@H](O)[C@@H](O)[C@H](O)[C@H](O)CO ; measured cell viability: 101

Lookup result for CN(C)CCN1C(=O)c2cccc3cc(N)cc(c23)C1=O [Amonafide] ; measured cell viability: 0.3

Lookup result for CCCCc1ccc(O)cc1O ; measured cell viability: 86.5

Lookup result for CCC(C(=O)O)c1ccc(N2Cc3ccccc3C2=O)cc1 (centres undefined) ; measured cell viability: 96.6

The values you see were collected from the supplement of paper PMC10981050.
